Test system: Plasmodium falciparum
Assay: Antiplasmodial activity against chloroquine and antifolate-sensitive Plasmodium falciparum TM4 after 24 hrs by [3H]-hypoxanthine incorporation assay
Type: functional, organism-based
PARAMETER: pEC50
Scale explanation: pEC50 corresponds to minus log10 of a concentration expressed in moles per litre.

**Q:** Indicate its recorded pEC50; the compound in question is CC1(C)N=C(N)N=C(N)N1c1ccc(Cl)cc1 [CYCLOGUANIL]
**A:** 7.42

====

Test system: Plasmodium falciparum
Assay: Antiplasmodial activity against multidrug-resistant Plasmodium falciparum Dd2 after 72 hrs by SYBR Green staining-based fluorescence assay
Format: functional, organism-based
Settings: Dd2, 72 h
PARAMETER: EC50 (nM)
# number only, unit nM dropped from output

**Q:** Provide only the value of recorded EC50 for CCOc1ccc(F)cc1C1(O)C(N)=Nc2ccc(Cl)cc21 (stereo unspecified)
**A:** 65
